Attribution: PubChem BioAssay

Tested on: Chordin-like protein 2 (CHRDL2)
measurement.protocol: CHRDL2 small-molecule binders, primary screen, biochemical, small-molecule microarray, 635 nm fluorescence (AID 1126);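 further: printed compound slides probed with Chrdl2 protein at 4 µg/mL for 1 h at 4 C; score merges 667 nm emission intensity with signal to noise over three replicate slides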
experimental.conditions: small-molecule microarray binding, fluorescence 635 nm; higher = more signal
Rule: Y for composite z-score not less than 0.3, N for anything less.

compound: CC(C)=C1C(=O)C(c2ccccc2)=C2CN3C(=O)N(CCc4ccccc4)C(=O)[C@]3(Cc3ccc(F)cc3)[C@H]21
discrete.label: N
//
compound: COc1cccc([C@H]2Oc3ccc(OC)cc3C(=NO[C@H](C)c3cn([C@@H]4COC[C@H]4O)nn3)[C@@H]2O)c1
discrete.label: N
//
compound: CC(=O)OC[C@H]1O[C@@H](ON=C(C)CCN2CCc3nc(-c4ccccc4)c(-c4ccccc4)cc3C2)[C@H](OC(C)=O)[C@@H](OC(C)=O)[C@@H]1OC(C)=O
discrete.label: Y
//
compound: COCC(=C=CC[C@@H](O)c1ccccc1OCCO)CCO
discrete.label: N
//
compound: CC(=O)OC[C@H]1O[C@H](CCON=C(C)CCC(=O)OC[C@H]2O[C@H](C#Cc3ccccc3)C=C[C@@H]2Oc2ccc(C)cc2)C=C[C@@H]1OC(C)=O
discrete.label: Y
//
compound: O=C1CCCC2OC12C(O)CCc1ccccc1 (configuration not stated)
discrete.label: Y
//
compound: C=CCOC(=O)[C@H]1[C@@H]2C(=O)O[C@@H](c3ccccc3)[C@@H](c3ccccc3)N2[C@@H](c2ccc(OCCOC(=O)[C@H]3C[C@H]4C(=O)N[C@@H](Cc5ccccc5)C(=O)N4[C@H]3c3ccc(O)cc3)cc2)[C@]12C(=O)Nc1ccccc12
discrete.label: Y
